# method_summary: Blood and brain concentrations and metabolites (LC-MS) after intraventricular (intracerebral) administration by osmotic pump
# Type: in vivo, mice
# measurement_parameters: mouse, whole blood, other: intraventricular infusion by osmotic pump; dose C=6.125 mg/Kg intraventricular, treated 14 days; read-out: Conc, Blood
value_type: concentration at 14 days

Given CO[C@H]1C[C@@H]2CC[C@@H](C)[C@@](O)(O2)C(=O)C(=O)N2CCCC[C@H]2C(=O)O[C@H]([C@H](C)C[C@@H]2CC[C@@H](OCCO)[C@H](OC)C2)CC(=O)[C@H](C)/C=C(\C)[C@@H](O)[C@@H](OC)C(=O)[C@H](C)C[C@H](C)/C=C/C=C/C=C/1C , state its recorded concentration at 14 days. < 1000 ng/g

* * *

# method_summary: Blood and brain concentrations (LC-MS) in mice treated intraperitoneally for a week with graduated doses
# Format: in vivo, CD1 mice
# measurement_parameters: male, CD1, mouse, whole blood, ip; males, 1.25 mg/kg intraperitoneally for a week, n = 2; read-out: Blood concentration
value_type: concentration at 1 week (µg/mL)
Respond numerically; units are µg/mL and should not be typed.

Given CO[C@H]1C[C@@H]2CC[C@@H](C)[C@@](O)(O2)C(=O)C(=O)N2CCCC[C@H]2C(=O)O[C@H]([C@H](C)C[C@@H]2CC[C@@H](OCCO)[C@H](OC)C2)CC(=O)[C@H](C)/C=C(\C)[C@@H](O)[C@@H](OC)C(=O)[C@H](C)C[C@H](C)/C=C/C=C/C=C/1C , state its recorded concentration at 1 week. 0.042

* * *

# method_summary: Blood and brain concentrations (LC-MS) in mice treated intraperitoneally for a week with graduated doses
# Assay type: in vivo, CD1 mice
# measurement_parameters: male, CD1, mouse, brain, right hemisphere (dx), ip; males, 2.5 mg/kg i.p. for a week; normalized to weight of a hemisphere; read-out: Brain concentration, hemisphere dx (converted)
# Protocol: A quantitative analysis of everolimus in blood and tissue samples was performed with the isotopic dilution method using the LC-MS technique. The chromatographic system was the following: Agilent 1290 Infinity HPLC equipped with a binary pump and HiP Auto Sampler model G4226A. […] Both everolimus and the isotopic internal standard were detected as ammonium adducts in the positive ion mode. […]
value_type: concentration at 1 week
The reply should read as a number followed by its unit.

Given CO[C@H]1C[C@@H]2CC[C@@H](C)[C@@](O)(O2)C(=O)C(=O)N2CCCC[C@H]2C(=O)O[C@H]([C@H](C)C[C@@H]2CC[C@@H](OCCO)[C@H](OC)C2)CC(=O)[C@H](C)/C=C(\C)[C@@H](O)[C@@H](OC)C(=O)[C@H](C)C[C@H](C)/C=C/C=C/C=C/1C [everolimus] , state its recorded concentration at 1 week. 208 ng/g

* * *

# method_summary: Blood and brain concentrations (LC-MS) in mice treated intraperitoneally for a week with graduated doses
# Assay type: in vivo, CD1 mice
# measurement_parameters: female, CD1, mouse, brain, left hemisphere (sx), ip; females, 1.25 mg/kg i.p. for a week; normalized to weight of a hemisphere; read-out: Brain concentration, hemisphere sx (converted)
value_type: concentration at 1 week
The reply should read as a number followed by its unit.

Given CO[C@H]1C[C@@H]2CC[C@@H](C)[C@@](O)(O2)C(=O)C(=O)N2CCCC[C@H]2C(=O)O[C@H]([C@H](C)C[C@@H]2CC[C@@H](OCCO)[C@H](OC)C2)CC(=O)[C@H](C)/C=C(\C)[C@@H](O)[C@@H](OC)C(=O)[C@H](C)C[C@H](C)/C=C/C=C/C=C/1C [everolimus] , state its recorded concentration at 1 week. 80 ng/g

* * *

# method_summary: Blood and brain concentrations (LC-MS) in mice treated intraperitoneally for a week with graduated doses
# Assay type: in vivo, CD1 mice
# measurement_parameters: female, CD1, mouse, brain, left hemisphere (sx), ip; females, 2.5 mg/kg i.p. for a week; normalized to weight of a hemisphere; read-out: Brain concentration, hemisphere sx (converted)
value_type: concentration at 1 week

Given CO[C@H]1C[C@@H]2CC[C@@H](C)[C@@](O)(O2)C(=O)C(=O)N2CCCC[C@H]2C(=O)O[C@H]([C@H](C)C[C@@H]2CC[C@@H](OCCO)[C@H](OC)C2)CC(=O)[C@H](C)/C=C(\C)[C@@H](O)[C@@H](OC)C(=O)[C@H](C)C[C@H](C)/C=C/C=C/C=C/1C , state its recorded concentration at 1 week. 152 ng/g

* * *

# method_summary: Blood and brain concentrations (LC-MS) in mice treated intraperitoneally for a week with graduated doses
# Format: in vivo, CD1 mice
# measurement_parameters: male, CD1, mouse, brain, left hemisphere (sx), ip; males, 2.5 mg/kg i.p. for a week; normalized to weight of a hemisphere; read-out: Brain concentration, hemisphere sx (converted)
value_type: concentration at 1 week (ng/g)
Respond numerically; units are ng/g and should not be typed.

Given CO[C@H]1C[C@@H]2CC[C@@H](C)[C@@](O)(O2)C(=O)C(=O)N2CCCC[C@H]2C(=O)O[C@H]([C@H](C)C[C@@H]2CC[C@@H](OCCO)[C@H](OC)C2)CC(=O)[C@H](C)/C=C(\C)[C@@H](O)[C@@H](OC)C(=O)[C@H](C)C[C@H](C)/C=C/C=C/C=C/1C [everolimus] , state its recorded concentration at 1 week. 176

* * *

# method_summary: Blood and brain concentrations and metabolites (LC-MS) after intraventricular (intracerebral) administration by osmotic pump
# Assay type: in vivo, mice
# measurement_parameters: mouse, whole blood, other: intraventricular infusion by osmotic pump; dose B=12.5 mg/Kg intraventricular, treated 14 days; read-out: Conc, Blood
value_type: concentration at 14 days

Given CO[C@H]1C[C@@H]2CC[C@@H](C)[C@@](O)(O2)C(=O)C(=O)N2CCCC[C@H]2C(=O)O[C@H]([C@H](C)C[C@@H]2CC[C@@H](OCCO)[C@H](OC)C2)CC(=O)[C@H](C)/C=C(\C)[C@@H](O)[C@@H](OC)C(=O)[C@H](C)C[C@H](C)/C=C/C=C/C=C/1C , state its recorded concentration at 14 days. < 1000 ng/g

* * *

# method_summary: Blood and brain concentrations (LC-MS) in mice treated intraperitoneally for a week with graduated doses
# Format: in vivo, CD1 mice
# measurement_parameters: male, CD1, mouse, whole blood, ip; males, 0.6125 mg/kg intraperitoneally for a week, n = 2; read-out: Blood concentration
# Description: A quantitative analysis of everolimus in blood and tissue samples was performed with the isotopic dilution method using the LC-MS technique. The chromatographic system was the following: Agilent 1290 Infinity HPLC equipped with a binary pump and HiP Auto Sampler model G4226A. […] Both everolimus and the isotopic internal standard were detected as ammonium adducts in the positive ion mode. […]
value_type: concentration at 1 week (ng/mL)
Respond numerically; units are ng/mL and should not be typed.

Given CO[C@H]1C[C@@H]2CC[C@@H](C)[C@@](O)(O2)C(=O)C(=O)N2CCCC[C@H]2C(=O)O[C@H]([C@H](C)C[C@@H]2CC[C@@H](OCCO)[C@H](OC)C2)CC(=O)[C@H](C)/C=C(\C)[C@@H](O)[C@@H](OC)C(=O)[C@H](C)C[C@H](C)/C=C/C=C/C=C/1C , state its recorded concentration at 1 week. 16

* * *

# method_summary: Blood and brain concentrations (LC-MS) in mice treated intraperitoneally for a week with graduated doses
# Format: in vivo, CD1 mice
# measurement_parameters: female, CD1, mouse, brain, right hemisphere (dx), ip; females, 1.25 mg/kg i.p. for a week; normalized to weight of a hemisphere; read-out: Brain concentration, hemisphere dx (converted)
value_type: concentration at 1 week (ng/g)
Respond numerically; units are ng/g and should not be typed.

Given CO[C@H]1C[C@@H]2CC[C@@H](C)[C@@](O)(O2)C(=O)C(=O)N2CCCC[C@H]2C(=O)O[C@H]([C@H](C)C[C@@H]2CC[C@@H](OCCO)[C@H](OC)C2)CC(=O)[C@H](C)/C=C(\C)[C@@H](O)[C@@H](OC)C(=O)[C@H](C)C[C@H](C)/C=C/C=C/C=C/1C , state its recorded concentration at 1 week. 72

* * *

# method_summary: Blood and brain concentrations (LC-MS) in mice treated intraperitoneally for a week with graduated doses
# Assay type: in vivo, CD1 mice
# measurement_parameters: female, CD1, mouse, whole blood, ip; females, 0.6125 mg/kg intraperitoneally for a week, n = 2; read-out: Blood concentration
value_type: concentration at 1 week (ng/mL)
Respond numerically; units are ng/mL and should not be typed.

Given CO[C@H]1C[C@@H]2CC[C@@H](C)[C@@](O)(O2)C(=O)C(=O)N2CCCC[C@H]2C(=O)O[C@H]([C@H](C)C[C@@H]2CC[C@@H](OCCO)[C@H](OC)C2)CC(=O)[C@H](C)/C=C(\C)[C@@H](O)[C@@H](OC)C(=O)[C@H](C)C[C@H](C)/C=C/C=C/C=C/1C [everolimus] , state its recorded concentration at 1 week. 15
